settings: in toluene, 288.15 K
REPORTED_ENDPOINT: solubility (mole fraction)

# query: solubility (mole fraction) of entry Nc1cccnc1
0.0427

====

conditions: in ethanol, 313.15 K
REPORTED_ENDPOINT: solubility (mole fraction)

# query: solubility (mole fraction) of entry Nc1cccnc1
0.71

====

conditions: in ethanol, 298.15 K
REPORTED_ENDPOINT: solubility (mole fraction)
Answers are plain numbers.

# query: solubility (mole fraction) of entry Nc1cccnc1
0.566

====

conditions: in toluene, 323.15 K
REPORTED_ENDPOINT: solubility (mole fraction)
One number for each entry.

# query: solubility (mole fraction) of entry Nc1cccnc1
0.546

====

settings: in toluene, 308.15 K
REPORTED_ENDPOINT: solubility (mole fraction)

# query: solubility (mole fraction) of entry Nc1cccnc1
0.223

====

conditions: in toluene, 283.15 K
REPORTED_ENDPOINT: solubility (mole fraction)

# query: solubility (mole fraction) of entry Nc1cccnc1
0.0297

====

conditions: in toluene, 303.15 K
REPORTED_ENDPOINT: solubility (mole fraction)
Numbers only.

# query: solubility (mole fraction) of entry Nc1cccnc1
0.152

====

conditions: in toluene, 298.15 K
REPORTED_ENDPOINT: solubility (mole fraction)
Give bare numbers.

# query: solubility (mole fraction) of entry Nc1cccnc1
0.0971

====

settings: in toluene, 313.15 K
REPORTED_ENDPOINT: solubility (mole fraction)
Give bare numbers.

# query: solubility (mole fraction) of entry Nc1cccnc1
0.313

====

conditions: in ethanol, 303.15 K
REPORTED_ENDPOINT: solubility (mole fraction)
Numbers only.

# query: solubility (mole fraction) of entry Nc1cccnc1
0.612

====

conditions: in ethanol, 293.15 K
REPORTED_ENDPOINT: solubility (mole fraction)
Answers are plain numbers.

# query: solubility (mole fraction) of entry Nc1cccnc1
0.518

====

conditions: in ethanol, 283.15 K
REPORTED_ENDPOINT: solubility (mole fraction)
Numbers only.

# query: solubility (mole fraction) of entry Nc1cccnc1
0.438

====

settings: in toluene, 318.15 K
REPORTED_ENDPOINT: solubility (mole fraction)
One number for each entry.

# query: solubility (mole fraction) of entry Nc1cccnc1
0.418
